TARGET UNDER TEST: T1, HLA-A*0201 (human)
T1 construct: also called HLA-A2.1; HLA-A2
ASSAY PROTOCOL: competition with 150 nM FL-labeled reference peptide on mild-acid treated HLA-A*0201+ JY B-LCL at 4 C, flow cytometry
EXPERIMENTAL READOUT: IC50 (nM)

- BINDER: "KVWGQYWQV (synthetic; N-terminal anchor (position 2) replaced by V) [gp100 154-162 epitope-analogue KVWGQYWQV]"
  MEASURED: 800
- BINDER: "KTWGQYWAV (synthetic; alanine at position 8) [gp100 154-162 epitope-analogue KTWGQYWAV]"
  MEASURED: 500

a = KLWGQYWQV (synthetic; N-terminal anchor (position 2) replaced by L) [gp100 154-162 epitope-analogue KLWGQYWQV]
b = KIWGQYWQV (synthetic; N-terminal anchor (position 2) replaced by I) [gp100 154-162 epitope-analogue KIWGQYWQV]
Choose between a and b : whose measured IC50 value is numerically larger? Please respond with the label that marks your chosen entry.
b

Values were extracted from patent US20040156861A1.
